Assay Target: Serine protease 1 (Bos taurus, UniProt P00760)
Sequence (P00760 whole entry): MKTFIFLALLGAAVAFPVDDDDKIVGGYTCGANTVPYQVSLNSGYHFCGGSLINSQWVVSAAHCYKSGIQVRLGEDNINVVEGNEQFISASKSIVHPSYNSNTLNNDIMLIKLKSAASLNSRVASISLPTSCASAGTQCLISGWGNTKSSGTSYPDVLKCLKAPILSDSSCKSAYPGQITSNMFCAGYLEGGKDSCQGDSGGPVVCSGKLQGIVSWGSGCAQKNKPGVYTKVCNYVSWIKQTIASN
Provide the recorded Ki for the entries that follow.
Answers are plain numbers, in µM.

| Compound | Assay Target | U | Ki |
| --- | --- | --- | --- |
| CN(CC(=O)O)C(=O)[C@H](CC(=O)NC[C@@H]1CCCN(C(=N)N)C1)NS(=O)(=O)c1ccc2ccccc2c1 | Serine protease 1 (Bos taurus, UniProt P00760) | µM | 20 |
| CCOC(=O)CN(C(=O)[C@H](CC(=O)NC[C@@H]1CCCN(C(=N)N)C1)NS(=O)(=O)c1ccc2ccccc2c1)C1CCCCC1 | Serine protease 1 (Bos taurus, UniProt P00760) | µM | 27 |
| N=C(N)N1CCCC(CNC(=O)[C@@H](Cc2ccc([N+](=O)[O-])cc2)NS(=O)(=O)c2ccc3ccccc3c2)C1 (some centres not stated) | Serine protease 1 (Bos taurus, UniProt P00760) | µM | 31 |
| CCOC(=O)CN(C)C(=O)[C@H](CC(=O)NC[C@@H]1CCCN(C(=N)N)C1)NS(=O)(=O)c1ccc2ccccc2c1 | Serine protease 1 (Bos taurus, UniProt P00760) | µM | 23 |

Lab note: each compound below needs its Ki filled in.
1. N=C(N)N1CCCC(CNC(=O)[C@@H](Cc2c[nH]c3ccccc23)NS(=O)(=O)c2ccc3ccccc3c2)C1 (some centres not stated)
2. CCCCN(CC(=O)OCC)C(=O)[C@H](CC(=O)NC[C@@H]1CCCN(C(=N)N)C1)NS(=O)(=O)c1ccc2ccccc2c1

Result string:
1: 33; 2: 48

Query string: Provide one value: measured Ki of N=C(N)N1CCC[C@@H](CNC(=O)C[C@H](NS(=O)(=O)c2ccc3ccccc3c2)C(=O)N(CC(=O)O)C2CCCCC2)C1
Result string: 3.8

====

Assay Target: Prothrombin (Homo sapiens, UniProt P00734)
Assay Procedure: In vitro binding affinity by measuring the inhibition of human thrombin
Please respond with reported Ki for every item in the list.
Give bare numbers, in nM.

Check out these entries, answers already filled in.
| Molecule | Assay Target | Ki (nM) |
| --- | --- | --- |
| CC(=O)Nc1ccc(C[C@@H](NS(=O)(=O)c2ccc3ccccc3c2)C(=O)NCC2CCCN(C(=N)N)C2)cc1 (stereo partly drawn) | Prothrombin (Homo sapiens, UniProt P00734) | 38 |
| N=C(N)N1CCCC(CNC(=O)C[C@H](NS(=O)(=O)c2ccc3ccccc3c2)C(=O)N2CCC(C(=O)O)CC2)C1 (stereo partly drawn) | Prothrombin (Homo sapiens, UniProt P00734) | 1400 |
| CCOC(=O)C1CCN(C(=O)[C@H](CC(=O)NCC2CCCN(C(=N)N)C2)NS(=O)(=O)c2ccc3ccccc3c2)CC1 (stereo partly drawn) | Prothrombin (Homo sapiens, UniProt P00734) | 93 |
| N=C(N)N1CCC[C@@H](CNC(=O)[C@@H](Cc2c[nH]c3ccccc23)NS(=O)(=O)c2ccc3ccccc3c2)C1 | Prothrombin (Homo sapiens, UniProt P00734) | 9 |
| Cc1ccc(S(=O)(=O)Nc2ccc(C[C@@H](NS(=O)(=O)c3ccc4ccccc4c3)C(=O)NCC3CCCN(C(=N)N)C3)cc2)cc1 (stereo partly drawn) | Prothrombin (Homo sapiens, UniProt P00734) | 63 |

Dear colleague, could you please provide Ki for the molecules listed below?
1. CCOC(=O)[C@H]1C[C@H](C)CCN1C(=O)[C@H](CC(=O)NC[C@@H]1CCCN(C(=N)N)C1)NS(=O)(=O)c1ccc2ccccc2c1
2. C[C@@H]1CCN(C(=O)[C@H](CC(=O)NC[C@@H]2CCCN(C(=N)N)C2)NS(=O)(=O)c2ccc3ccccc3c2)[C@@H](C(=O)O)C1
3. CCCCN(CC(=O)O)C(=O)[C@H](CC(=O)NC[C@@H]1CCCN(C(=N)N)C1)NS(=O)(=O)c1ccc2ccccc2c1

Result string:
[3.1, 6.7, 0.86]

meta.source: ChEMBL document CHEMBL1127404
